measurement-conditions: vechten pond sediment, pH 7.2
Would you please tag the item True when its Half life is 20 h or above, and False when it is below?

molecular-string: Ic1ccccc1
class-assignment: True

molecular-string: IC(I)=C(I)I
class-assignment: False

molecular-string: ClC(Cl)(Cl)C(Cl)(Cl)Cl
class-assignment: False

molecular-string: ClC(Cl)=C(Cl)Cl
class-assignment: True

molecular-string: BrCCBr
class-assignment: False

Source of measurements: patent US5711020A
